- Assay Remarks: Dynamic light scattering (hydrodynamic size)
- Assay type: physicochemical
- Condition Notes: hydrodynamic diameter by DLS, photo-PISA at solids content of 15 wt. %
Mark Satisfied only for Dh values smaller than 60 nm; exact matches and larger values are Not satisfied.

Query: Check if Dh falls below 60 nm for NP2: KLA peptide brush polymer nanoparticle: shell KLAAm 10, DMA 30; core DAAm 140, DMA 60 (KLAKLAKKLAKLAK) .
Result: Not satisfied

Query: Another substance: poly[(KLAAm10-co-DMA10)-b-(DAAm140-co-DMA60)] (KLAKLAKKLAKLAK) [NP4, KLA peptide brush polymer nanoparticle]
Result: Not satisfied

Query: Another substance: poly[(KLAAm10-co-DMA30)-b-(DAAm70-co-DMA30)] (KLAKLAKKLAKLAK) [NP1, KLA peptide brush polymer nanoparticle]
Result: Satisfied

Query: Another substance: poly[(KLAAm10-co-DMA10)-b-(DAAm280-co-DMA120)] (KLAKLAKKLAKLAK) [NP5, KLA peptide brush polymer nanoparticle]
Result: Not satisfied

Query: Another substance: poly[(KLAAm10-co-DMA30)-b-(DAAm280-co-DMA120)] (KLAKLAKKLAKLAK) [NP3, KLA peptide brush polymer nanoparticle]
Result: Not satisfied
